test system: S1507-2; experiment: drug sensitivity score (DSS, CellTox-Green cytotoxicity, 72 h) (DSS (dimensionless)); higher = more cytotoxic; extreme values may be limits of the assay
Catalogue of drug sensitivity score readings, one per entry.
A bare number is all that is needed in reply.

Examples with their reported drug sensitivity score follow.
COc1cccc2c1C(=O)c1c(O)c3c(c(O)c1C2=O)C[C@@](O)(C(=O)CO)C[C@@H]3O[C@H]1C[C@H](N)[C@H](O)[C@H](C)O1 [Doxorubicin] (max concentration tested 1000 nM)    0.0502
Cn1cc(CNCC2CCN(c3ncc(C(=O)NO)cn3)CC2)c2ccccc21 [Quisinostat] (max concentration tested 1000 nM)    17.2
CN(N=O)C(=O)N[C@@H]1[C@@H](O)[C@H](O)[C@@H](CO)O[C@@H]1O [Streptozocin] (max concentration tested 10000 nM)    0.108
Oc1ccc2c(c1)CC[C@H](c1ccccc1)[C@@H]2c1ccc(OCCN2CCCC2)cc1 [Lasofoxifene] (max concentration tested 1000 nM)    0
COc1cc([C@@H]2c3cc4c(cc3[C@@H](O[C@@H]3O[C@@H]5CO[C@@H](C)O[C@H]5[C@H](O)[C@H]3O)[C@H]3COC(=O)[C@H]23)OCO4)cc(OC)c1O [Etoposide] (max concentration tested 10000 nM)    1.82

stdin: Dear colleague, I am looking for the recorded drug sensitivity score of the following molecule: CCCCC/C=C/C=C1/C(=O)C=C[C@@H]1C/C=C\CCCC(=O)O [15D-PGJ2] (max concentration tested 800 nM)
stdout: 0
